Cited source: patent US10000527B2

System: M. Tuberculosis
protocolDescription: Anti TB ex vivo infection model, dormant
Assay type: cell-based
reportedConditions: Mycobacterium tuberculosis
Provide the reported IC50 of each item.
Express your answer in µg/mL, writing the number without its unit.

*Q* Notebook: pull reported IC50 for M. Tuberculosis, entry COC(=O)CC[C@@H](C)C1CCC2C3C([C@H](n4nnc5ccccc54)C(=O)[C@@]21C)[C@@]1(C)CC[C@@H](OC(C)=O)C[C@H]1C[C@H]3OC(C)=O (stereo partly drawn) [Compound 8]
*A* 1.65

*Q* What IC50 appears in the records for this compound with M. Tuberculosis? COC(=O)CC[C@@H](C)C1CCC2C3C([C@H](NC(=O)C(CO)NC(=O)OC(C)(C)C)C(=O)[C@@]21C)[C@@]1(C)CC[C@@H](OC(C)=O)C[C@H]1C[C@H]3OC(C)=O (stereo partly drawn) [Compound 7]
*A* 1.32

*Q* For M. Tuberculosis, provide IC50 of COC(=O)CC[C@@H](C)C1CCC2C3C([C@H](NC(=O)C4CCCN4C(=O)OC(C)(C)C)C(=O)[C@@]21C)[C@@]1(C)CC[C@@H](OC(C)=O)C[C@H]1C[C@H]3OC(C)=O (stereo partly drawn) [Compound 9] please.
*A* 3.42
